measurement notes: Inhibition of Peptidyl-prolyl cis-trans isomerase Trypanosoma cruzi cyclophilin (CL Brener strain, p19)
measurement name: IC50 (nM)

# compound, unit of measure, observed
data = [
    ("CCC/C=C(/C)[C@@H](O)[C@H]1C(=O)N[C@@H](CC)C(=O)N(C)CC(=O)N(C)[C@@H](CC(C)CO)C(=O)N[C@@H](C(C)C)C(=O)N(C)[C@@H](CC(C)C)C(=O)N[C@@H](C)C(=O)N[C@H](C)C(=O)N(C)[C@@H](CC(C)C)C(=O)N(C)[C@@H](CC(C)C)C(=O)N(C)[C@@H](C(C)C)C(=O)N1C (some centres not stated)", "nM", 19.3),
    ("CCC/C=C(/C)[C@@H](O)[C@H]1C(=O)N[C@@H]([C@@H](C)OCCCO)C(=O)N(C)CC(=O)N(C)[C@@H](CC(C)C)C(=O)N[C@@H](C(C)C)C(=O)N(C)[C@@H](CC(C)C)C(=O)N[C@@H](C)C(=O)N[C@H](C)C(=O)N(C)[C@@H](CC(C)C)C(=O)N(C)[C@@H](CC(C)C)C(=O)N(C)[C@@H](C(C)C)C(=O)N1C", "nM", 22.1),
    ("C/C=C/CC(C)[C@@H](O)[C@H]1C(=O)N[C@@H](CC)C(=O)N(C)CC(=O)N(C)[C@@H](CC(C)C)C(=O)N[C@@H](C(C)C)C(=O)N(C)[C@@H](CC(C)C)C(=O)N[C@@H](C)C(=O)N[C@H]([C@H](C)O)C(=O)N(C)[C@@H](CC(C)C)C(=O)N(C)[C@@H](CC(C)C)C(=O)N(C)[C@@H](C(C)C)C(=O)N1C (some centres not stated)", "nM", 16.9),
    ("CC[C@@H]1NC(=O)[C@H]([C@H](O)C(C)C/C=C/c2ccccc2)N(C)C(=O)[C@H](C(C)C)N(C)C(=O)[C@H](CC(C)C)N(C)C(=O)[C@H](CC(C)C)N(C)C(=O)[C@@H](C)NC(=O)[C@H](C)NC(=O)[C@H](CC(C)C)N(C)C(=O)[C@H](C(C)C)NC(=O)[C@H](CC(C)C)N(C)C(=O)CN(C)C1=O (some centres not stated)", "nM", 12.5),
    ("CC[C@@H]1NC(=O)[C@H]([C@H](O)/C(C)=C\\CCCN=[N+]=[N-])N(C)C(=O)[C@H](C(C)C)N(C)C(=O)[C@H](CC(C)C)N(C)C(=O)[C@H](CC(C)C)N(C)C(=O)[C@@H](C)NC(=O)[C@H](C)NC(=O)[C@H](CC(C)C)N(C)C(=O)[C@H](C(C)C)NC(=O)[C@H](CC(C)C)N(C)C(=O)CN(C)C1=O", "nM", 23.2),
    ("CC[C@@H]1NC(=O)[C@H]([C@H](O)/C(C)=C\\CCCOC)N(C)C(=O)[C@H](C(C)C)N(C)C(=O)[C@H](CC(C)C)N(C)C(=O)[C@H](CC(C)C)N(C)C(=O)[C@@H](C)NC(=O)[C@H](C)NC(=O)[C@H](CC(C)C)N(C)C(=O)[C@H](C(C)C)NC(=O)[C@H](CC(C)C)N(C)C(=O)CN(C)C1=O", "nM", 25.5),
    ("CC[C@@H]1NC(=O)[C@H]([C@H](O)C(C)CCCc2ccccc2)N(C)C(=O)[C@H](C(C)C)N(C)C(=O)[C@H](CC(C)C)N(C)C(=O)[C@H](CC(C)C)N(C)C(=O)[C@@H](C)NC(=O)[C@H](C)NC(=O)[C@H](CC(C)C)N(C)C(=O)[C@H](C(C)C)NC(=O)[C@H](CC(C)C)N(C)C(=O)CN(C)C1=O (some centres not stated)", "nM", 13.3),
]
